- System: Raji (Burkitt's Lymphoma);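 also: after 72 h of two-drug dosing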
- experimental protocol: Bliss excess, mean over the matrix (fraction); higher = more synergy

compound	Bliss excess
COc1cccc(OCCCN)c1-c1cc(Nc2cnc(C#N)cn2)n[nH]1 [Prexasertib] + C[C@@H]1COCCN1C2=NC(=NC(=C2)C3(CC3)[S@](=N)(=O)C)C4=C5C=CNC5=NC=C4 [AZD6738] (first compound max 1 µM, 7x7, partner max 10 µM)	-0.0472
NC1(C(=O)N[C@@H](CCO)c2ccc(Cl)cc2)CCN(c2ncnc3[nH]ccc23)CC1 [Capivasertib] + CC(=O)c1c(C)c2cnc(Nc3ccc(N4CCNCC4)cn3)nc2n(C2CCCC2)c1=O [Palbociclib] (first compound max 10 µM, 7x7, partner max 10 µM)	0.0521
Cc1cc2ncnn2cc1Nc1ncc2c(n1)n(C1CCOCC1)c(=O)n2C [AZD7648] + CN(C)CCCOc1ccc(-c2ccc3ncc4c(c3c2)n(C2CCOCC2)c(=O)n4C)cn1 [AZD0156] (first compound max 10 µM, 7x7, partner max 1 µM)	0.0416
CC1(C)CCC(CN2CCN(c3ccc(C(=O)NS(=O)(=O)c4ccc(NCC5CCOCC5)c([N+](=O)[O-])c4)c(Oc4cnc5[nH]ccc5c4)c3)CC2)=C(c2ccc(Cl)cc2)C1 [Venetoclax] + C=CCn1c(=O)c2cnc(Nc3ccc(N4CCN(C)CC4)cc3)nc2n1-c1cccc(C(C)(C)O)n1 [AZD1775] (first compound max 1 µM, partner max 1 µM)	-0.023

###

Parameter: combination Emax. Scope: all listed entries.
- Test system: T47D (Breast Carcinoma)
- experimental protocol: combination Emax (second highest fraction inhibited in the dose matrix, 72 h); higher = more inhibition; extreme values may be limits of the assay

molecule	combination Emax
COc1cccc2c1C(=O)c1c(O)c3c(c(O)c1C2=O)C[C@@](O)(C(=O)CO)C[C@@H]3O[C@H]1C[C@H](N)[C@H](O)[C@H](C)O1 [Doxorubicin] + Cc1cc2ncnn2cc1Nc1ncc2c(n1)n(C1CCOCC1)c(=O)n2C [AZD7648] (first compound max 1 µM, 7x7, partner max 10 µM)	0.64
CC1(C)CCC(CN2CCN(c3ccc(C(=O)NS(=O)(=O)c4ccc(NCC5CCOCC5)c([N+](=O)[O-])c4)c(Oc4cnc5[nH]ccc5c4)c3)CC2)=C(c2ccc(Cl)cc2)C1 [Venetoclax] + C1CN(CCC1(C(=O)N[C@@H](CCO)C2=CC=C(C=C2)Cl)N)C3=NC=NC4=C3C=CN4 [Capivasertib] (first compound max 1 µM, 7x7, partner max 3 µM)	0.373
COc1nnc2ccc(N3CCC(c4ccc(OCCN5CCN(C)C(=O)[C@H]5C)cc4)CC3)nn12 [AZD5153] + C=CCn1c(=O)c2cnc(Nc3ccc(N4CCN(C)CC4)cc3)nc2n1-c1cccc(C(C)(C)O)n1 [AZD1775] (first compound max 1 µM, partner max 1 µM)	0.505

###

Listed here are compounds together with their documented combination Emax.
- System: MM1S (Plasma Cell Myeloma)
- experimental protocol: combination Emax (second highest fraction inhibited in the dose matrix, 72 h); higher = more inhibition; extreme values may be limits of the assay

compound	combination Emax
COc1cccc(OCCCN)c1-c1cc(Nc2cnc(C#N)cn2)n[nH]1 [Prexasertib] + C[C@@H]1COCCN1C2=NC(=NC(=C2)C3(CC3)[S@](=N)(=O)C)C4=C5C=CNC5=NC=C4 [AZD6738] (first compound max 1 µM, 7x7, partner max 10 µM)	0.877
Cc1c2c(nn1C)CSCc1cc(n(C)n1)CSc1cc(c3ccccc3c1)OCCCc1c(C(=O)O)n(C)c3c-2c(Cl)ccc13 [AZD5991] + CC1(C)CCC(CN2CCN(c3ccc(C(=O)NS(=O)(=O)c4ccc(NCC5CCOCC5)c([N+](=O)[O-])c4)c(Oc4cnc5[nH]ccc5c4)c3)CC2)=C(c2ccc(Cl)cc2)C1 [Venetoclax] (first compound max 1 µM, 7x7, partner max 1 µM)	0.99
Cc1c2c(nn1C)CSCc1cc(n(C)n1)CSc1cc(c3ccccc3c1)OCCCc1c(C(=O)O)n(C)c3c-2c(Cl)ccc13 [AZD5991] + Cc1cc2ncnn2cc1Nc1ncc2c(n1)n(C1CCOCC1)c(=O)n2C [AZD7648] (first compound max 1 µM, 7x7, partner max 10 µM)	1
